Test system: Aβ42
test.summary: Aβ42 IC50 assay (SHSYSY-APP cell-based screening, UCSD sandwich Aβ42 ELISA)
IC50 under 10 nM gets rule met, anything at or over 10 nM gets rule not met.

# molecule, label
records = [
    ("CC[C@H](Nc1nnc(-c2ccc(-n3cnc(C)c3)c(OC)n2)cc1C)c1ccc(F)cc1", "rule met"),
    ("COc1nc(-c2cc(C)c(N[C@@H](C)c3cccc(Cl)c3)nn2)ccc1-n1cnc(C)c1", "rule met"),
    ("COc1nc(-c2cc(C)c(N[C@@H]3C[C@H]3c3ccccc3)nn2)ccc1-n1cnc(C)c1 (racemic)", "rule met"),
    ("CC[C@H](Nc1nnc(-c2ccc(-n3cnc(C)c3)c(OC)n2)cc1C)c1ccccc1F", "rule not met"),
    ("COc1nc(-c2nnc(N[C@@H](C)c3ccccc3)cc2C)ccc1-n1cnc(C)c1", "rule not met"),
    ("COc1nc(-c2cc(C)c(N[C@@H](C)C(C)C)nn2)ccc1-n1cnc(C)c1", "rule not met"),
    ("CC[C@H](Nc1nnc(-c2ccc(-n3cnc(C)c3)c(OC)n2)cc1C)c1ccc(C#N)cc1", "rule not met"),
    ("COc1nc(-c2nnc(NCc3ccc(F)cc3)c(C)c2C)ccc1-n1cnc(C)c1", "rule not met"),
]

* * *

Tested on: Aβ42
test.summary: Aβ42 IC50 assay (SHSYSY-APP cell-based screening, UCSD sandwich Aβ42 ELISA)
pIC50: −log10 of the molar value.
reported.endpoint: pIC50

# compound, reading
measured = [
    ("COc1nc(-c2cc(C)c(N[C@H](C)C(C)C)nn2)ccc1-n1cnc(C)c1 [Example 66]", 7.28),
    ("COc1nc(-c2cc(C)c(N(C)[C@@H](C)c3ccc(F)cc3)nn2)ccc1-n1cnc(C)c1 [Example 19]", 6.62),
    ("COc1nc(-c2cc(C)c(N[C@@H](C)c3ccccc3)nn2)ccc1-n1cnc(C)c1 [Example 35]", 7.92),
    ("COc1nc(-c2cc(C)c(N[C@@H](C)c3cccc(C)c3C)nn2)ccc1-n1cnc(C)c1 [Example 100]", 8.40),
]

* * *

Tested on: Aβ42
test.summary: Aβ42 IC50 assay (SHSYSY-APP cell-based screening, UCSD sandwich Aβ42 ELISA)
pIC50: −log10 of the molar value.
This section presents compounds with their documented pIC50 values.
reported.endpoint: pIC50

# compound, assay.target, reading
data = [
    ("CC[C@H](C)Nc1nnc(-c2ccc(-n3cnc(C)c3)c(OC)n2)cc1C [Example 63]", "Aβ42", 7.10),
    ("COc1nc(-c2cc(C(C)C)c(NCc3ccc(F)cc3)nn2)ccc1-n1cnc(C)c1 [Example 13]", "Aβ42", 7.68),
    ("COc1nc(-c2ccc(N[C@@H](C)c3ccccc3)nn2)ccc1-n1cnc(C)c1 [Example 22]", "Aβ42", 7.80),
    ("COc1nc(-c2cc(C)c(N[C@@H](C)c3ccc(F)cc3C)nn2)ccc1-n1cnc(C)c1 [Example 69]", "Aβ42", 8.35),
    ("COc1nc(-c2cc(C)c(N[C@@H](C)c3ccc(C(F)(F)F)cc3)nn2)ccc1-n1cnc(C)c1 [Example 37]", "Aβ42", 8.20),
    ("COc1nc(-c2cc(C(C)C)c(N[C@@H](C)c3ccc(F)cc3)nn2)ccc1-n1cnc(C)c1 [Example 11]", "Aβ42", 8.12),
    ("COc1nc(-c2cc(C)c(NCCCc3ccc(F)cc3)nn2)ccc1-n1cnc(C)c1 [Example 73]", "Aβ42", 7.59),
    ("CCN(c1nnc(-c2ccc(-n3cnc(C)c3)c(OC)n2)cc1C)[C@@H](C)c1ccc(F)cc1 [Example 20]", "Aβ42", 6.88),
    ("COc1nc(-c2cc(C(C)C)c(N[C@@H](C)c3ccccc3)nn2)ccc1-n1cnc(C)c1 [Example 14]", "Aβ42", 8.14),
    ("COc1nc(-c2cc(C)c(N[C@@H](C)c3ccccc3F)nn2)ccc1-n1cnc(C)c1 [Example 34]", "Aβ42", 8.37),
    ("COc1nc(-c2cc(C)c(N[C@@H](C)c3cc(C(F)(F)F)cc(C(F)(F)F)c3)nn2)ccc1-n1cnc(C)c1 [Example 43]", "Aβ42", 8.12),
    ("COc1nc(-c2cc(C)c(N[C@@H](C)c3cccc(C)c3)nn2)ccc1-n1cnc(C)c1 [Example 48]", "Aβ42", 8.20),
    ("COc1ccccc1[C@H](C)Nc1nnc(-c2ccc(-n3cnc(C)c3)c(OC)n2)cc1C [Example 41]", "Aβ42", 7.76),
    ("COc1nc(-c2cc(C)c(N[C@@H](C)c3cccc(C(F)(F)F)c3F)nn2)ccc1-n1cnc(C)c1 [Example 101]", "Aβ42", 8.30),
    ("COC[C@H](C)Nc1nnc(-c2ccc(-n3cnc(C)c3)c(OC)n2)cc1C [Example 62]", "Aβ42", 5.67),
    ("COc1nc(-c2cc(C)c(NC3CCCCC3)nn2)ccc1-n1cnc(C)c1 [Example 81]", "Aβ42", 7.57),
]
